Below, each entry is listed with its recorded EC50.
Assay Target: T1, recombinant LILRB1 (human, UniProt Q8NHL6 24-461)
T1 construct: LILRB1-Fc proteins were also made; also called LILRB1 recombinant proteins
T1 sequence (Q8NHL6 24-461 limits assumed): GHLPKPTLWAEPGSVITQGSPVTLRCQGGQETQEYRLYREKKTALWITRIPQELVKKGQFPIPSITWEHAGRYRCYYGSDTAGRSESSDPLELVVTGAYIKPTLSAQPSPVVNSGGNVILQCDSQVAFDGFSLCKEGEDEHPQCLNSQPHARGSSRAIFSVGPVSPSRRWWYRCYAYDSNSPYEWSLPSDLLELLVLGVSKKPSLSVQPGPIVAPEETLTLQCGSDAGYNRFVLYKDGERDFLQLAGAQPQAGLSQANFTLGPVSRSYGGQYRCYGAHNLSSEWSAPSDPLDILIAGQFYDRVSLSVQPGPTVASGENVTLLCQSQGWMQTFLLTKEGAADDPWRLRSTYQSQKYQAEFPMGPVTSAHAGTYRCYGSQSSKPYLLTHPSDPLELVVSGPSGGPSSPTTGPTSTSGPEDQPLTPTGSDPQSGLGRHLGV
Assay Remarks: ELISA, coated recombinant LILRB1, antibody titration;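 note: serially diluted anti-LILRB1 antibodies incubated 60 min at 37 °C on plates coated with 50 ng/well recombinant protein, TMB colorimetric development read as absorbance at 450 nm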
Number only, in µg/mL; omit the unit.

Binder	Assay Result
B1-#28 (antibody, V domains shown, recombinant rabbit IgG) VH: EQSLEESGGGLVKPGASLTLTCKASGFSFSSDYDMCWVRQAPGKGLEWIGCIVTGFSGRIYYATWARGRFTFSRTSSTTLTLQMTSLTAADTATYFCARDSGNYNWDLWGPGTLVTISS VL: ELDLTQTPTSVSAAVGGTVTIKCQASQSISDYLSWYQQKPGQPPKLLIYRASTLASGVPSRFKGSGSGTEFTLTISDLECADAATYYCQSNYYGSQGCTFGGGTEVEIK	0.0242

Let us examine a further case.
// field: EC50; key: B1-#220 (antibody, V domains shown, recombinant rabbit IgG) VH: QSVEESGGGLVQPEGSLTLTCTASGFSFSGIVYMCWVRQAPGKGLEWIACAFVGSGGSTYYATWATGRFTISKTSSTTVTLQMTSLTAADTATYFCAKSYNYNGLGLWGPGTLVTVSS VL: ELDMTQTPASVSAAVGGTVTIKCQASQSITNALAWYQQKPGQPPKLLIYRASTLASGVSSRFKGSGSGTEFTLTISDLECADAATYYCQCSYYGSTYFGSPFGGGTEVEIK ; value = 0.0106
